- measured-target: Acetylcholinesterase (Electrophorus electricus) (UniProt O42275)
- Sequence (O42275 24-633 limits assumed): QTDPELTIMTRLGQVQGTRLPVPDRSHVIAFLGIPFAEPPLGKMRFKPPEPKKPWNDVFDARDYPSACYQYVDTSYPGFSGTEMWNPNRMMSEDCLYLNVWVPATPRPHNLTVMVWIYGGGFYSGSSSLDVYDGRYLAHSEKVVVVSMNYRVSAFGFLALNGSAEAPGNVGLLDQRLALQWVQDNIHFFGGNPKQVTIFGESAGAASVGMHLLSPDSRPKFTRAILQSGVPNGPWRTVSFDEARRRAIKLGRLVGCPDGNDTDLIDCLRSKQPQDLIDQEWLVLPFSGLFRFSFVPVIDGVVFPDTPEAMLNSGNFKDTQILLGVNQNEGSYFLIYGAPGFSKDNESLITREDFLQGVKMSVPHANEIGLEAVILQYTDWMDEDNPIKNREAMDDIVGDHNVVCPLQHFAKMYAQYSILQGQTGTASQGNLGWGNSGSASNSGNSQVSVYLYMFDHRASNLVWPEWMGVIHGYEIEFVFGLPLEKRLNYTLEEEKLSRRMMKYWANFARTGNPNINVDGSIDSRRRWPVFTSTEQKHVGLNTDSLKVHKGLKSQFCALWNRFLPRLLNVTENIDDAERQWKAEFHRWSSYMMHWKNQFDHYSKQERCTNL
- assay-details: Inhibition of Electrophorus electricus AChE at 10 uM using acetylthiocholine iodide as substrate incubated for 15 mins by Ellman's method relative to control
assay-readout: inhibition (%)

compound	measured-target	assay-readout	quantity-unit	test-result
COc1cc2c(cc1OC)C(Cc1cccc(O)c1N1CCOCC1)OC2=O (stereo unspecified)	Acetylcholinesterase (Electrophorus electricus) (UniProt O42275)	inhibition	%	11
COc1cc2c(cc1OC)/C(=C\c1cccc(O)c1N1CCCCC1)OC2=O	Acetylcholinesterase (Electrophorus electricus) (UniProt O42275)	inhibition	%	42.8
COc1cc2c(cc1OC)C(Cc1cccc(O)c1)OC2=O (stereo unspecified)	Acetylcholinesterase (Electrophorus electricus) (UniProt O42275)	inhibition	%	14.4
COc1cc2c(cc1OC)/C(=C/c1ccc(N3CCN(C)CC3)c(O)c1)OC2=O	Acetylcholinesterase (Electrophorus electricus) (UniProt O42275)	inhibition	%	42.4
CCN(CC)c1c(O)cccc1/C=C1\OC(=O)c2cc(OC)c(OC)cc21	Acetylcholinesterase (Electrophorus electricus) (UniProt O42275)	inhibition	%	38
COc1cc2c(cc1OC)/C(=C/c1cccc(O)c1N1CCCCC1)OC2=O	Acetylcholinesterase (Electrophorus electricus) (UniProt O42275)	inhibition	%	41.1
COc1cc2c(cc1OC)C(Cc1ccc(N3CCN(C)CC3)c(O)c1)OC2=O (stereo unspecified)	Acetylcholinesterase (Electrophorus electricus) (UniProt O42275)	inhibition	%	42.4
COc1cc2c(cc1OC)/C(=C/c1cccc(O)c1N1CCN(C)CC1)OC2=O	Acetylcholinesterase (Electrophorus electricus) (UniProt O42275)	inhibition	%	22.3
COc1cc2c(cc1OC)C(Cc1cccc(O)c1N1CCCCC1)OC2=O (stereo unspecified)	Acetylcholinesterase (Electrophorus electricus) (UniProt O42275)	inhibition	%	12.6
COc1cc2c(cc1OC)C(Cc1cccc(O)c1N1CCN(C)CC1)OC2=O (stereo unspecified)	Acetylcholinesterase (Electrophorus electricus) (UniProt O42275)	inhibition	%	14
CCN(CC)c1c(O)cccc1CC1OC(=O)c2cc(OC)c(OC)cc21 (stereo unspecified)	Acetylcholinesterase (Electrophorus electricus) (UniProt O42275)	inhibition	%	16.3

* * *

- measured-target: Amine oxidase [flavin-containing] B (Homo sapiens, UniProt P27338)
- Sequence (P27338 whole entry): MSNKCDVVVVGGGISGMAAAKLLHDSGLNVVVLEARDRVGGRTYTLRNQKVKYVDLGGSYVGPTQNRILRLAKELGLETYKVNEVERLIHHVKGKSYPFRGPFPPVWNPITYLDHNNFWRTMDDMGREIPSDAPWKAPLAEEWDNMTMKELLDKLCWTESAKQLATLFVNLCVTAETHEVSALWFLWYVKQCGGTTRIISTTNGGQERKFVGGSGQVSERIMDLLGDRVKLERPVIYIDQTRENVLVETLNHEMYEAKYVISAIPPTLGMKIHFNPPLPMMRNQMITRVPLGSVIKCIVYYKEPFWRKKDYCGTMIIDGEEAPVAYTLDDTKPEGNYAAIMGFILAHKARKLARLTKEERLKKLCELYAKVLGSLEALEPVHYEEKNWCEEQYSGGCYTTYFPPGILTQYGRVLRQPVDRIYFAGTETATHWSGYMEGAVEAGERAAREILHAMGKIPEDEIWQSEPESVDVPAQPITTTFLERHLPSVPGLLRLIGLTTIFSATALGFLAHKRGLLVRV
- assay-details: Inhibition of recombinant human MAOB at 10 uM using kynuramine as substrate preincubated for 30 mins followed by substrate addition and measured after 30 mins by fluorescence assay relative to control
- condition-info: 0.5 h
assay-readout: inhibition at 10 µM (%)

compound	assay-readout	test-result
CCN(CC)c1c(O)cccc1/C=C1/OC(=O)c2cc(OC)c(OC)cc21	inhibition at 10 µM	44.6
COc1cc2c(cc1OC)/C(=C\c1ccc(O)c(N3CCCCC3)c1)OC2=O	inhibition at 10 µM	34.8
CCN(CC)c1cc(/C=C2/OC(=O)c3cc(OC)c(OC)cc32)ccc1O	inhibition at 10 µM	24.9
COc1cc2c(cc1OC)C(Cc1ccc(N3CCOCC3)c(O)c1)OC2=O (centres undefined)	inhibition at 10 µM	34.7
